assay: Cytotoxicity against African green monkey MARC145 cells assessed as growth inhibition at 40 ug/mL after 72 hrs by MTT assay
Assay type: functional
measurement_setup: Chlorocebus aethiops, MARC145, 72 h; read-out: GI
assay_readout: inhibition of growth at 40 µg/mL (%)

{"columns": ["compound", "quantitative_result"],
 "data": [
  ["COc1ccc(CCNC(=O)c2cc3c([nH]c4ccccc43)c(C(=O)c3c[nH]c4ccccc34)n2)cc1OC", 38.4],
  ["O=C(NCCc1cccc(O)c1)c1cc2c([nH]c3ccccc32)c(C(=O)c2c[nH]c3ccccc23)n1", 83.2],
  ["COC(=O)C(CO)NC(=O)c1cc2c([nH]c3ccccc32)c(C(=O)c2c[nH]c3ccccc23)n1 (stereo unspecified)", 83.2],
  ["COc1cccc(CCNC(=O)c2cc3c([nH]c4ccccc43)c(C(=O)c3c[nH]c4ccccc34)n2)c1", 48.4],
  ["O=C(NCc1ccc(F)cc1)c1cc2c([nH]c3ccccc32)c(C(=O)c2c[nH]c3ccccc23)n1", 63.8],
  ["COc1cc(CNC(=O)c2cc3c([nH]c4ccccc43)c(C(=O)c3c[nH]c4ccccc34)n2)ccc1O", 79.1]
]}
